Biological target: human TLR9 (Homo sapiens, UniProt Q9NR96)
Sequence (Q9NR96 26-1032): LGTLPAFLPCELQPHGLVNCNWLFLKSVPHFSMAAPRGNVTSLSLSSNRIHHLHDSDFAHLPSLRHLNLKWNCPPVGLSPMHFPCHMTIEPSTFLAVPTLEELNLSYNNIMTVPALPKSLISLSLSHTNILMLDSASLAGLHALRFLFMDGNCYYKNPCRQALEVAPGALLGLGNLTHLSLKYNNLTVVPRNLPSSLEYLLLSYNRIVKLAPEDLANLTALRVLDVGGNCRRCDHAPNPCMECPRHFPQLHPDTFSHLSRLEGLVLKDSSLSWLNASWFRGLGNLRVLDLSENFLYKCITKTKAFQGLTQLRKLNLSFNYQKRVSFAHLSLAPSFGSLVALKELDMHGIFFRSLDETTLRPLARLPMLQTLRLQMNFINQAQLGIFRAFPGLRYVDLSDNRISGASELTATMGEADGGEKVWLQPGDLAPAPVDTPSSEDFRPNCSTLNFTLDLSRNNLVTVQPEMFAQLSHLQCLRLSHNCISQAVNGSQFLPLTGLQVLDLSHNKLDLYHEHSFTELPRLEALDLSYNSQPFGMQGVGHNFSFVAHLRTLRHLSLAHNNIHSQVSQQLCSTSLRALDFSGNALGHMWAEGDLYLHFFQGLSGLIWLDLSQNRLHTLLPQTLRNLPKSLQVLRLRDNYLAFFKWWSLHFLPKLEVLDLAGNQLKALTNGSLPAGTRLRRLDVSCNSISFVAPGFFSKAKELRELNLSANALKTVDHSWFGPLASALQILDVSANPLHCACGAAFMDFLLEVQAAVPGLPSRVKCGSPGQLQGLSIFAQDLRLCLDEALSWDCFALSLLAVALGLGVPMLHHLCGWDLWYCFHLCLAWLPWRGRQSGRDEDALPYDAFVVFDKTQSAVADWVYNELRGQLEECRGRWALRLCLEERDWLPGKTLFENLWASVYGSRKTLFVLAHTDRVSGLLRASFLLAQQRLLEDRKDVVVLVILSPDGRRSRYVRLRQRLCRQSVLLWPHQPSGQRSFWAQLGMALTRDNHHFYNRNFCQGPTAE
Assay: TLR9 inhibition reporter assay (HEK-Blue cells, SEAP reporter, ODN2006 stimulation)
Details: HEK-Blue cells overexpressing human TLR9, SEAP reporter, ODN2006 5 nM
Source text: TLR7/8/9 Inhibition Reporter Assays HEK-Blue™-cells (Invivogen) overexpressing human TLR7, TLR8 or TLR9 receptors were used for screening inhibitors of these receptors using an inducible SEAP (secreted embryonic alkaline phosphatase) reporter gene under the control of the IFN-β minimal promoter fused to five NF-κB and AP-1-binding sites. […]
PARAMETER_MEASURED: IC50 (µM)

Some solved entries appear below for comparison.
input: Input Cc1c(-c2[nH]c3sc(C4CCC(N(C)C(C)C)CC4)nc3c2C(C)C)cn2ncnc2c1C (single isomer, unassigned) [Example 222] , output reported IC50.
output: 30.4

input: Using the record for CC(C)c1c(-c2ccc(C#N)c3ncccc23)[nH]c2sc(C3CCN(CC(=O)N(C)C)CC3)nc12 , state its measured IC50.
output: 18.9

input: Recall and state the measured IC50 for Cc1c(-c2[nH]c3sc(C4CCC(NCC(C)(C)O)CC4)nc3c2C(C)C)cn2ncnc2c1C (single isomer, unassigned) [Example 196] .
output: 12.7

input: Determine its reported IC50: Cc1cc(-c2[nH]c3sc(C4CCN(C(=O)CN(C)C)CC4)nc3c2C(C)C)cn2ncnc12
output: 5.94

input: Please give measured IC50 of the following entry: Cc1c(-c2[nH]c3sc(C4CCC(N5CC(F)C5)CC4)nc3c2C(C)C)cn2ncnc2c1C (single isomer, unassigned) [Example 226]
output: 6.78

input: Tell me IC50 reported for COc1cc(-c2[nH]c3sc(C4CCC(NCC(C)(C)OC)CC4)nc3c2C(C)C)cn2ncnc12 (single isomer, unassigned) [Example 86]
output: 6.42

A: CC(C)c1c(-c2cn(C)c3ncccc23)[nH]c2sc(C3CCC(N4CC5(COC5)C4)CC3)nc12 (single isomer, unassigned) [Example 181]
B: COC(C)(C)CNC1CCN(c2nc3c(C(C)C)c(-c4cn5ncnc5c(C)c4C)[nH]c3s2)CC1
input: Recorded IC50 values differ for A and B ; which one is higher? Field: selected label. Fill in the label of the entry you choose.
output: B

----------
biological target: human TLR9 (Homo sapiens, UniProt Q9NR96); assay: TLR9 inhibition reporter assay (HEK-Blue cells, SEAP reporter, ODN2006 stimulation); conditions: HEK-Blue cells overexpressing human TLR9, SEAP reporter, ODN2006 5 nM
pIC50: −log10 of the molar value.
PARAMETER_MEASURED: pIC50

input: Return the recorded pIC50 value; entry: Cc1c(-c2[nH]c3sc(C4CCC(N5CCC6(CC5)COC6)CC4)nc3c2C(C)C)cn2ncnc2c1C (single isomer, unassigned) [Example 237]
output: 5.26

P: COc1cc(-c2[nH]c3sc(C4CCC(N5CC(OC)C5)CC4)nc3c2C(C)C)cn2ncnc12 (single isomer, unassigned) [Example 123]
Q: Cc1c(-c2[nH]c3sc(N4C[C@@H](C)N(C5CCOCC5)C[C@@H]4C)nc3c2C(C)C)cn2ncnc2c1C
input: # compare pIC50 for P vs Q ; return the one with the smaller value When you have decided, please share the label of that item.
output: Q

----------
Biological target: human TLR9 (Homo sapiens, UniProt Q9NR96)
Construct: host or cells: HEK-Blue cells
Sequence (Q9NR96 26-1032): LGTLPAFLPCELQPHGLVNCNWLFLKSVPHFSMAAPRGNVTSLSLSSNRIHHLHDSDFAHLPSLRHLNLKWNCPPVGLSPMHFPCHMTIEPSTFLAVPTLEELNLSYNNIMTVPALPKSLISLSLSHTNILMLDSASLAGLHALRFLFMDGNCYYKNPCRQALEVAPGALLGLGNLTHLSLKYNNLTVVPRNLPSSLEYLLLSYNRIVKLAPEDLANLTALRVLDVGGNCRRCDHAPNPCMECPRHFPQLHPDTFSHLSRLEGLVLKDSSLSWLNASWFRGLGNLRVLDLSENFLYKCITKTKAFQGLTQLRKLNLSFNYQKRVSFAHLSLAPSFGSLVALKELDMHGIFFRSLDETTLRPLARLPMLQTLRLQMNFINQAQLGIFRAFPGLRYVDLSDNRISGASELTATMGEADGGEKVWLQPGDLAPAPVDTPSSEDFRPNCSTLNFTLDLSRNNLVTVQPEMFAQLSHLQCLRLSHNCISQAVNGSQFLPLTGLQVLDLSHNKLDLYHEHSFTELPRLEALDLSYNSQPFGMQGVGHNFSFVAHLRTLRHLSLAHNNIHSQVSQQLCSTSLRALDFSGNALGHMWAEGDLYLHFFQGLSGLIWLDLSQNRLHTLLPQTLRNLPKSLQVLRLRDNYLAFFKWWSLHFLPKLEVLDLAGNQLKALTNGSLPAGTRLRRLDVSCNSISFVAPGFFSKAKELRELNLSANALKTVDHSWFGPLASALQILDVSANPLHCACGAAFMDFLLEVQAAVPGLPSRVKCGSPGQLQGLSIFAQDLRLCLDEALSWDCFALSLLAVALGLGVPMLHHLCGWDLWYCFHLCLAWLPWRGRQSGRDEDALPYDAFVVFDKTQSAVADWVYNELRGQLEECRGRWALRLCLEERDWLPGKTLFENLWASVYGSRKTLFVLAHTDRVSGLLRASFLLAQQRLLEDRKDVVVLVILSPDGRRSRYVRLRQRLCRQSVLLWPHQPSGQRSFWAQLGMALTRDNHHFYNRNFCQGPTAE
Experiment: TLR9 inhibition reporter assay (HEK-Blue cells, SEAP reporter, ODN2006 stimulation)
Format: cell-based
Details: HEK-Blue cells overexpressing human TLR9, SEAP reporter, ODN2006 5 nM
PARAMETER_MEASURED: IC50 (µM)

input: Using the record for CC(C)c1c(-c2cn(C)c3ncccc23)[nH]c2sc(C3CCC(NCC(C)(C)O)CC3)nc12 (single isomer, unassigned) [Example 182] , state its measured IC50.
output: 13.5

1: Cc1cc2ncnn2cc1-c1[nH]c2sc(C3CCC(NCC(C)(C)O)CC3)nc2c1C(C)C (single isomer, unassigned) [Example 157]
2: Cc1c(-c2[nH]c3sc(N4CCC(NC5COC5)CC4)nc3c2C(C)C)cn2ncnc2c1C
input: Kindly identify which of 1 and 2 has the larger recorded IC50 value. Your answer should be the label attached to the chosen record.
output: 2
(2: 33.8 µM, 1: 16.4 µM)

----------
target: human TLR7 (Homo sapiens); construct: host or cells: HEK-Blue cells; assay: TLR7 inhibition reporter assay (HEK-Blue cells, SEAP reporter, gardiquimod stimulation); format: cell-based; conditions: HEK-Blue cells overexpressing human TLR7, SEAP reporter, gardiquimod 7.5 μM; read-out: TLR7 IC50
Sequence (Q9NYK1 27-1049): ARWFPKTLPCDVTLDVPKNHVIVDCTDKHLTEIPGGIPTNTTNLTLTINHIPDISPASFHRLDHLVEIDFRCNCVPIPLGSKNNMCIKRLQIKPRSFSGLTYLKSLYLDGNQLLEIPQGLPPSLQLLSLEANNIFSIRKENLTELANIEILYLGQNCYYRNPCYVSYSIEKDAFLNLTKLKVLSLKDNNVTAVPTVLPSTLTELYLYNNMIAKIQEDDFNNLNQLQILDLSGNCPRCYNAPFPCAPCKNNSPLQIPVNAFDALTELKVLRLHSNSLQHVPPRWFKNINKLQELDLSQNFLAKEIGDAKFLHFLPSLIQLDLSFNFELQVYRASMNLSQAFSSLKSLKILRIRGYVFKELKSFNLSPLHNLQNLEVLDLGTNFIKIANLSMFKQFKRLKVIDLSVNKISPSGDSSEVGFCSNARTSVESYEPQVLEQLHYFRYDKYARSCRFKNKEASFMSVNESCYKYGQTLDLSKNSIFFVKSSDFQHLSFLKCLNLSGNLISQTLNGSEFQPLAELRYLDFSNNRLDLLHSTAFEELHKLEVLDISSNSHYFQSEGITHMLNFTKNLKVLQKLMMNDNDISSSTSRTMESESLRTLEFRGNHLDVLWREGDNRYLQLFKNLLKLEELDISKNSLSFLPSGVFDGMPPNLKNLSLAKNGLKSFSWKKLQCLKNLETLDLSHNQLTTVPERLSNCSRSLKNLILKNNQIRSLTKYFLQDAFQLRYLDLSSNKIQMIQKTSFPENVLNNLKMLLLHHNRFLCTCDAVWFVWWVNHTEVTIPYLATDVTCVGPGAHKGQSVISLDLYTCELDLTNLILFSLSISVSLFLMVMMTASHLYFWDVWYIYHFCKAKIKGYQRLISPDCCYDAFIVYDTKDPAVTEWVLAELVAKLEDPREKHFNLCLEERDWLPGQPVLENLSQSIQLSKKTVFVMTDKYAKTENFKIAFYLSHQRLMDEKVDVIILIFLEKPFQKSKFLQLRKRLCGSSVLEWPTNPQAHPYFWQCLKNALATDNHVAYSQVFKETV
PARAMETER_MEASURED: IC50 (nM)

1: COc1cc(-c2[nH]c3sc(C4CCC(NC(=O)CN(C)C)CC4)nc3c2C(C)C)cn2ncnc12 (stereo not shown)
2: COc1cc(-c2[nH]c3sc(C4CCC(N(C)CCS(C)(=O)=O)CC4)nc3c2C(C)C)cn2ncnc12 (single isomer, unassigned) [Example 165]
3: Cc1c(-c2[nH]c3sc(C4CCN(C5COC5)CC4)nc3c2C(C)C)cn2ncnc2c1C
input: Falling order of IC50, please. Labels, requested order.
output: 3, 2, 1
(3: 2.54 nM, 2: 1.61 nM, 1: 0.98 nM)

I: COc1cc(-c2[nH]c3sc(C4CCC(N5CCNC(=O)C5)CC4)nc3c2C(C)C)cn2ncnc12 (single isomer, unassigned) [Example 120]
II: Cc1cc2ncnn2cc1-c1[nH]c2sc(C3CCC(NC4(C)COC4)CC3)nc2c1C(C)C (single isomer, unassigned) [Example 144]
III: CCCN1CCC(c2nc3c(C(C)C)c(-c4cn5ncnc5c(C)c4C)[nH]c3s2)CC1
input: Arrange the 3 molecules from largest to smallest IC50. Sort the labels as requested; that list is your answer.
output: II, I, III

a: CC(=O)N1CCC(c2nc3c(C(C)C)c(-c4cn5ncnc5c(C)c4C)[nH]c3s2)CC1
b: Cc1cc(-c2[nH]c3sc(C4CCN(CC(=O)N(C)C)CC4)nc3c2C(C)C)cc(C)n1
c: Cc1c(-c2[nH]c3sc(C4CCN(C(C)C)CC4)nc3c2C(C)C)cn2ncnc2c1C
input: List from greatest to least IC50. To answer, arrange all of the labels according to the requested order.
output: b, a, c
(b: 43.4 nM, a: 5.83 nM, c: 1.68 nM)

P: Cc1c(-c2[nH]c3sc(CN4CCNC(=O)C4)nc3c2C(C)C)cn2ncnc2c1C
Q: Cc1c(-c2[nH]c3sc(C4CCC(NCC(N)=O)CC4)nc3c2C(C)C)cn2ncnc2c1C (stereo not shown) [Example 210]
R: Cc1c(-c2[nH]c3sc(N4CCN(CCS(C)(=O)=O)C[C@H]4C)nc3c2C(C)C)cn2ncnc2c1C
input: Please rank these molecules by IC50 in descending order. Response field: labels, in requested order.
output: R, P, Q
(R: 13.9 nM, P: 2.74 nM, Q: 1.8 nM)
